# Test system: K562
# protocol text: Growth inhibition of human K562 cells after 48 hrs by sulforhodamine B assay
# Assay type: functional
# condition info: K562, 48 h
measure name: TGI

Worked cases, answers included:
May I ask what TGI has been recorded for COc1cc(C)cc(-c2c(-c3ccnc(-c4ccc(N(C)C)cc4)c3)cnn2CC#N)c1 ?
3.82 µM

May I ask what TGI has been recorded for Cc1cc(O)cc(-c2nn(CC#N)cc2-c2ccnc(-c3ccc(Oc4ccccc4)cc3)c2)c1 ?
6.02 µM

May I ask what TGI has been recorded for Cc1cc(O)cc(-c2nn(CC#N)cc2-c2ccnc(-c3ccc(N(C)C)cc3)c2)c1 ?
32.8 µM

May I ask what TGI has been recorded for COc1cc(C)cc(-c2nn(CC#N)cc2-c2ccc(-c3cccc(C(C)=O)c3)nc2)c1 ?
> 100 µM

May I ask what TGI has been recorded for COc1cc(C)cc(-c2c(-c3ccnc(-c4ccc(C(C)=O)cc4)c3)cnn2CC#N)c1 ?
> 100 µM

New cases:
May I ask what TGI has been recorded for COc1cc(C)cc(-c2nn(CC#N)cc2-c2ccnc(-c3ccc(N(C)C)cc3)c2)c1 ?
> 100 µM

---

# Tested on: EKVX
# protocol text: Growth inhibition of human EKVX cells after 48 hrs by sulforhodamine B assay
# Assay type: functional
measure name: log10 of GI50 (log10 of the value in µM)
Log scale reminder: GI50 in µM, then log10 taken.

Worked cases, answers included:
May I ask what log10 of GI50 has been recorded for COc1cc(C)cc(-c2nn(CC#N)cc2-c2ccc(-c3cccc(C(C)=O)c3)nc2)c1 ?
0.60

May I ask what log10 of GI50 has been recorded for Cc1cc(O)cc(-c2nn(CC#N)cc2-c2ccnc(-c3ccc(Oc4ccccc4)cc3)c2)c1 ?
0.33

Take each entry in turn and give its log10 of GI50.
1. Cc1cc(O)cc(-c2nn(CC#N)cc2-c2ccnc(-c3ccc(N(C)C)cc3)c2)c1
2. COc1cc(C)cc(-c2c(-c3ccnc(-c4ccc(N(C)C)cc4)c3)cnn2CC#N)c1
3. COc1cc(C)cc(-c2nn(CC#N)cc2-c2ccnc(-c3ccc(N(C)C)cc3)c2)c1
4. COc1cc(C)cc(-c2c(-c3ccnc(-c4ccc(C(C)=O)cc4)c3)cnn2CC#N)c1

[0.59, -0.54, -0.16, 0.76]

---

# protocol text: Growth inhibition of human NCI60 cells at 10 uM after 48 hrs by sulforhodamine B assay relative to control
# Assay type: functional
# condition info: NCI60, 48 h, read-out: GI
Binning scheme for inhibition of growth at 10 µM: low value (below 10%), medium value (10% to below 30%), high value (30% or more)

Input COc1cc(C)cc(-c2nn(CC#N)cc2-c2ccnc(-c3cccc(NC(C)=O)c3)c2)c1 ; output its category
low value

Input COc1cc(C)cc(-c2nn(CC#N)cc2-c2ccnc(-c3ccc(Oc4ccccc4)cc3)c2)c1 ; output its category
medium value

Input COc1cc(C)cc(-c2nn(CC#N)cc2-c2ccc(-c3cccc(C(C)=O)c3)nc2)c1 ; output its category
high value

Input COc1cc(C)cc(-c2c(-c3ccnc(-c4ccc(C(C)=O)cc4)c3)cnn2CC#N)c1 ; output its category
high value

Input Cc1cc(O)cc(-c2nn(CC#N)cc2-c2ccnc(-c3ccc(Oc4ccccc4)cc3)c2)c1 ; output its category
high value

Input Cc1cc(O)cc(-c2nn(CC#N)cc2-c2ccnc(-c3ccccc3)c2)c1 ; output its category
medium value

Input COc1cc(C)cc(-c2nn(CC#N)cc2-c2ccnc(-c3ccc(C#N)cc3)c2)c1 ; output its category
medium value

Input COc1cc(C)cc(-c2c(-c3ccnc(-c4cccc(NC(C)=O)c4)c3)cnn2CC#N)c1 ; output its category
low value

Input Cc1cc(O)cc(-c2nn(CC#N)cc2-c2ccnc(-c3ccc(C#N)cc3)c2)c1 ; output its category
medium value
